Reference source: paper PMC4276534

Molecular target: MrgX1 (Homo sapiens)
Assay: Ca2+ imaging assay on MrgX1-expressing HEK293 cells
Assay type: cell-based
Settings: EC50 of BAM8-22 on MrgX1, with ML382
Measured Quantity: EC50 (nM)
Quick note: give the figure in nM, leave out the unit.

Indicate its recorded EC50; the substance in question is H-VGRPEWWMDYQKRYG-OH [BAM8-22, reference compound]
2.9

---

Hi there, I'd appreciate the recorded EC50 for every entry that follows.
Target: MrgX1 (Homo sapiens, UniProt Q96LB2)
Sequence (Q96LB2 whole entry): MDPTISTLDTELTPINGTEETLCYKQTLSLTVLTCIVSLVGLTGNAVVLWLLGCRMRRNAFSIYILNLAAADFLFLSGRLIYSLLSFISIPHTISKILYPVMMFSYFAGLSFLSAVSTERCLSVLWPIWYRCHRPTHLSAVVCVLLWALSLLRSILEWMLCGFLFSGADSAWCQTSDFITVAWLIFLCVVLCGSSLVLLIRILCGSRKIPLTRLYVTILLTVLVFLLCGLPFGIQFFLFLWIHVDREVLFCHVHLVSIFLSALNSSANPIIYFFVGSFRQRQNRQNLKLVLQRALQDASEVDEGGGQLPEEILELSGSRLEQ
Assay: HTS triple addition screen for MrgX1 positive allosteric modulators
Assay type: cell-based
Settings: read-out: MrgX1 EC50; HTS screen value; HEK293 cell line stably expressing MrgX1
Quick note: give the figure in nM, leave out the unit.

Indicate its recorded EC50; the compound in question is CSc1ccccc1NC(=O)c1ccccc1N(C)S(C)(=O)=O [SID 4262381]
329

Indicate its recorded EC50; the compound in question is CCOc1ccccc1NC(=O)c1ccccc1NS(C)(=O)=O [SID 4258711]
96
